- measurement_protocol: UWB1.289-WTBRCA1 Cancer Cell Toxicity qHTS against the NCATS CANVASS Library (AID 1347354)
- experimental_context: UWB1.289-WTBRCA1 viability, CellTiter-Glo luminescence, 72 h; series mostly up to 38.3 µM
Results filed as inconclusive are left out. Calls of active or inactive are those of the source. The call rests on the fitted dose curve; in most records, active means well fitted cell-killing curve with a large enough effect; inconclusive means small, poorly fitted or top-dose-only effect, or effect the other way; inactive means flat fitted curve, though single readings scatter.
Possible outcomes: active, inactive

| compound | group |
| --- | --- |
| COc1ccc(C23Oc4cc(OC)cc(OC)c4[C@](O)([C@H](c4ccccc4)C2C(=O)NCCCCNC(=O)c2ccccc2)[C@@H]3O)cc1 (some centres not stated) | inactive |
| CN1C(=O)[C@]23CC4C(C)(C)[C@@]5(C[C@@]41CN2CC[C@@]3(C)O)C(=O)Nc1c5ccc2c1OC=CC(C)(C)O2 (some centres not stated) | inactive |
| O=C(c1ccccc1O)c1[nH]c(Cl)c(Cl)c1-n1c(C(=O)c2ccccc2O)cc(Cl)c1Cl | active |
| CC1=CC(=O)C2=C(C)C[C@H](O)[C@@H]3[C@H](OC(=O)[C@@H]3C)[C@@H]12 | inactive |
| c1ccc2c3c([nH]c2c1)CNCC3 | inactive |
| COc1ccc2c(c1)[nH]c1c(C)nccc12 | inactive |
| CO[C@@H](/C=C/CC/C=C/C(=O)O)[C@@H](O)[C@H](C)[C@@H](O)/C(C)=C/[C@H](C)C(=O)CCCC1CC(=O)NC(=O)C1 | inactive |
| COC(=O)C1=C2Nc3ccccc3[C@@]23CCN2CC(C(C)=O)C1C[C@H]23 (some centres not stated) | inactive |
| COc1ccc2c3c([nH]c2c1)C(C)=NCC3 | inactive |
| CO[C@H](c1ccccc1)[C@H]1NC(=O)C(C)NC(=O)C(C[C@@H](C)CO)N(C)C(=O)[C@@H](C(O)c2cn(C(C)(C)C3CO3)c3ccccc23)NC(=O)C(C(C)C=C(C)C)NC(=O)C(CC(C)C)N(C)C(=O)C(C(C)C)NC1=O (some centres not stated) | inactive |
| CC[N@@+]1([O-])C[C@]2(C)CC[C@@H](O)[C@@]34C5C[C@H]6CC[C@@]5(C(C[C@H]23)C41)[C@H](O)[C@@]6(O)CO (some centres not stated) | inactive |
| CCCC[C@@H]1CC[C@H]2CCCC(CCC)N12 (some centres not stated) | inactive |
| CC(=O)N[C@H]1CCN2CCC[C@H]12 | inactive |
| C/C=C1/CN2CC[C@]34C(=Nc5ccccc53)[C@@H]2C[C@@H]1[C@H]4C(=O)OC | inactive |
| CN(C)Cc1c[nH]c2ccccc12 | inactive |
| CNCCc1c[nH]c2ccccc12 | inactive |
| C[C@]12CC(O)C3[C@@H](CCC4C[C@@H](O)CC[C@@]43CO)[C@@]1(O)CCC2C1=CC(=O)OC1 (some centres not stated) | inactive |

====

- measurement_target: Catechol O-methyltransferase (Homo sapiens) (UniProt P21964)
- Sequence (P21964 whole entry, looked up): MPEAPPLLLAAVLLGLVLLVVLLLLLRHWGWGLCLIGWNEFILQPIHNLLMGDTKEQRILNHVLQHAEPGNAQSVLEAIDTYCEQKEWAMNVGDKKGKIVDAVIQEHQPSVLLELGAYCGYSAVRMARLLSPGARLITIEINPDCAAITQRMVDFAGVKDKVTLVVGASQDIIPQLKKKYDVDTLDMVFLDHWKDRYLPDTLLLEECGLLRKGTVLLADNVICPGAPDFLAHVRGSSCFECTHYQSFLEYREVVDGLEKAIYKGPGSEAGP
- measurement_protocol: Confirmatory Screen for Target Class Profiling of Small Molecule Inhibitors of Methyltransferases (AID 1745852)
- experimental_context: MTase-Glo luminescence, SAH detection, recombinant enzyme; measured here: COMT max response; stronger effect = lower value

| compound | readout_unit | activity |
| --- | --- | --- |
| Fc1cc(F)c2c(c1)C1C=CCC1C(c1cccnc1)N2 (stereo not given) | % | -0.484 |
| C[C@H]1O[C@@H](O[C@H]2CC[C@]3(CO)C4CC[C@]5(C)[C@@H](C6=CC(=O)OC6)CC[C@]5(O)[C@@H]4CC[C@H]3C2)[C@H](O)[C@H](O)[C@@H]1O[C@@H]1O[C@H](CO)[C@@H](O)[C@H](O)[C@H]1O (stereo not given in full) | % | -90 |
| Clc1ccc([C@]23CNC[C@H]2C3)cc1Cl | % | -0.0723 |
| C=C(CO)C(=O)O[C@H]1CC(=C)[C@@H]2C[C@H](O)C(=C)[C@@H]2[C@H]2OC(=O)C(=C)[C@@H]21 | % | -80.9 |
| CCC1CN2CCc3cc(OC)c(OC)cc3C2CC1CC1=NCCc2cc(O)c(OC)cc21 (stereo not given) | % | -74.9 |
| O=C1NC(=O)c2c1c1c3ccccc3[nH]c1c1[nH]c3ccccc3c21 | % | -2.49 |
| O=C1Nc2ccc3ncsc3c2/C1=C/c1cnc[nH]1 | % | -10.3 |
| CCOC(=O)c1ccnc2cc(C(OCCN3CCCCC3)c3ccccc3Cl)sc12 (stereo not given) | % | -1.68 |
| N#Cc1ccc(N2CCN(C(=O)COc3ccc4[nH]cc(CCN)c4c3)CC2)cc1 | % | -2.1 |
| Oc1ccc2c(c1)C13CCCC[C@H]1[C@@H](C2)N(CC1CCC1)CC3 | % | -7.63 |
